Target: Insulin-degrading enzyme (Homo sapiens)
Assay: WT IDE enzyme inhibition, cell-free – biochemical, fluorescence polarization, run by assay provider, counter-screen for IDE inhibitor project, late-stage follow-up (AID 624067)
Conditions: recombinant IDE, FAbetaB cleavage
Reported Property: IC50

>>> value_observed("O=c1c2ccccc2sn1-c1cc(S(=O)(=O)N2CCOCC2)ccc1N1CCOCC1")
"1.4 µM"
>>> value_observed("O=C(Nc1cccc(C(F)(F)F)c1)c1csc(-c2ccncc2)n1")
"5.3 µM"
>>> value_observed("Clc1cccc(-c2nnc(SCc3nc4ccccc4[nH]3)n2Cc2ccco2)c1")
"3.9 µM"
